- System: RPMI-8226
- PROTOCOL TEXT: NCI tumour cell line growth inhibition, 48 h
Calls of active or inactive are those of the source. No stated cut-off is given here; in the data, active = GI50 up to about 1.1 µM and inactive = higher.
Possible outcomes: active, inactive

{"MOLECULE": "C[N+](C)(C)/N=C\\c1ccc(O)c(O)c1", "TEST TARGET": "RPMI-8226", "CLASS": "inactive"}
{"MOLECULE": "COc1cc(/C=C2\\Cc3ccccc3C2=O)cc(OC)c1OC", "TEST TARGET": "RPMI-8226", "CLASS": "inactive"}
{"MOLECULE": "O=c1c(-c2cccc3ccccc23)c(-c2cccc3ccccc23)c1=O", "TEST TARGET": "RPMI-8226", "CLASS": "active"}
{"MOLECULE": "COC(C/C(=C/CO[Si](C(C)C)(C(C)C)C(C)C)C(=O)Nc1ccccc1I)OC", "TEST TARGET": "RPMI-8226", "CLASS": "inactive"}
{"MOLECULE": "CCN(CCCl)c1cc(CN(C)C)cc(NC(=O)c2ccc(C(=O)Nc3cc(CN(C)C)cc(N(CC)CCCl)c3)cc2)c1", "TEST TARGET": "RPMI-8226", "CLASS": "active"}
{"MOLECULE": "O=C1CCCC2COc3ccc(O)c1c32 (configuration not stated)", "TEST TARGET": "RPMI-8226", "CLASS": "inactive"}
{"MOLECULE": "CCSC1=N/C(=C\\c2ccco2)C(NN)=N1", "TEST TARGET": "RPMI-8226", "CLASS": "inactive"}
{"MOLECULE": "Cc1nc(-n2nc(-c3ccccc3)cc2-c2ccccc2)sc1C(=O)/C=C/c1ccc([N+](=O)[O-])cc1", "TEST TARGET": "RPMI-8226", "CLASS": "inactive"}
{"MOLECULE": "CN(C)/C=[N+]1/[C@@H](Cc2ccccc2)C(=O)O[B-]1(F)c1ccccc1 (some centres not stated)", "TEST TARGET": "RPMI-8226", "CLASS": "inactive"}
{"MOLECULE": "CC(=O)OCCCCN1C(=O)CSc2ccccc21", "TEST TARGET": "RPMI-8226", "CLASS": "inactive"}
{"MOLECULE": "COc1cc2c(cc1OC)C(C1CC1)ON(C)CC2 (configuration not stated)", "TEST TARGET": "RPMI-8226", "CLASS": "inactive"}
{"MOLECULE": "Cc1ccc2c(n1)C(=O)c1cc(C)c(C)cc1C2=O", "TEST TARGET": "RPMI-8226", "CLASS": "inactive"}
{"MOLECULE": "C/C=C/C=C\\C1OC(O)([C@H](CC)C(=O)NC/C=C/C=C(\\C)[C@H](OC)C(C)C2OC(\\C=C/C=C/C=C(\\C)C(=O)c3c(O)ccn(C)c3=O)[C@H](O)[C@@H]2O)C(O)C(O)C1(C)C (some centres not stated)", "TEST TARGET": "RPMI-8226", "CLASS": "inactive"}
{"MOLECULE": "COc1ccc(N2C(=O)C3c4[nH]c5cccc(C)c5c4C4CCC(C(C)(C)C)CC4C3C2=O)cc1 (configuration not stated)", "TEST TARGET": "RPMI-8226", "CLASS": "inactive"}
{"MOLECULE": "Cc1ccc(S(=O)(=O)N(CC(O)COc2ccccc2)c2ccc(F)cc2F)cc1 (configuration not stated)", "TEST TARGET": "RPMI-8226", "CLASS": "inactive"}
{"MOLECULE": "CCC(C)(C)c1ccc(Oc2cccc(C(=O)O)c2)cc1", "TEST TARGET": "RPMI-8226", "CLASS": "inactive"}
{"MOLECULE": "C/C(=C1/N=C(c2cc([N+](=O)[O-])ccc2Cl)N(c2ccc(Br)cc2)C1=O)c1ccc(N(CCC#N)CCC#N)cc1C", "TEST TARGET": "RPMI-8226", "CLASS": "inactive"}
{"MOLECULE": "CC(C)(C)[C@H]1CC[C@@](O)(c2ccccc2)CC1.CC(C)(C)[C@H]1CC[C@](O)(c2ccccc2)CC1", "TEST TARGET": "RPMI-8226", "CLASS": "inactive"}
{"MOLECULE": "C=CCc1cccc2cc(C(=O)NC3CCCCC3)c(=N)oc12", "TEST TARGET": "RPMI-8226", "CLASS": "inactive"}
{"MOLECULE": "COC1C(OC(N)=O)C(O)C(Oc2ccc3c(O)c(NC(=O)c4ccc(O)c(CC=C(C)C)c4)c(=O)oc3c2C)OC1(C)C (configuration not stated)", "TEST TARGET": "RPMI-8226", "CLASS": "inactive"}
{"MOLECULE": "COc1cccc(C23CCCC(C2)NCC3Br)c1OC (configuration not stated)", "TEST TARGET": "RPMI-8226", "CLASS": "inactive"}
{"MOLECULE": "CC1(C)[C@H]2Cc3cc4nc5ccccn5c4cc3[C@@H]1C2", "TEST TARGET": "RPMI-8226", "CLASS": "inactive"}
{"MOLECULE": "CC1=C(/C=C/C(=O)O)C(C)(C)CCC1", "TEST TARGET": "RPMI-8226", "CLASS": "inactive"}
{"MOLECULE": "FC(F)(F)c1cccc(C2SCc3nc4ccccc4n32)c1 (configuration not stated)", "TEST TARGET": "RPMI-8226", "CLASS": "inactive"}
{"MOLECULE": "CCCCCCCCNC(=O)C1=C(C)NC(C)=C(C(=O)NCCCCCCCC)C1", "TEST TARGET": "RPMI-8226", "CLASS": "inactive"}
{"MOLECULE": "O=P(NC12CC3CC(CC(C3)C1)C2)(N1CC1)N1CC1", "TEST TARGET": "RPMI-8226", "CLASS": "inactive"}
{"MOLECULE": "CC(C)(C)NNc1c([N+](=O)[O-])cnn(-c2ccccc2)c1=O", "TEST TARGET": "RPMI-8226", "CLASS": "inactive"}
{"MOLECULE": "O=C(C=P(c1ccccc1)(c1ccccc1)c1ccccc1)c1ccc(-c2cccc([N+](=O)[O-])c2)s1", "TEST TARGET": "RPMI-8226", "CLASS": "inactive"}
{"MOLECULE": "C[N+](C)(C)CC(=O)N/N=C(/Cc1nc2ccc([N+](=O)[O-])cc2nc1O)C(=O)Nc1cc(C(F)(F)F)ccc1Cl", "TEST TARGET": "RPMI-8226", "CLASS": "inactive"}
{"MOLECULE": "CC(=O)OC1CCC2(C)C(=CCC3C2CCC2(C)C(C(C)C(=O)O)CCC32)C1 (configuration not stated)", "TEST TARGET": "RPMI-8226", "CLASS": "inactive"}
{"MOLECULE": "CC1=C(C#N)C(C#N)(C#N)C(NN(C)C)C1 (configuration not stated)", "TEST TARGET": "RPMI-8226", "CLASS": "inactive"}
{"MOLECULE": "C1=Cc2nc1c(-c1ccccc1)c1ccc([n-]1)c(-c1ccccc1)c1nc(c(-c3ccccc3)c3ccc([n-]3)c2-c2ccccc2)C=C1.[Zn+2]", "TEST TARGET": "RPMI-8226", "CLASS": "inactive"}
{"MOLECULE": "O=C(c1ccncc1)n1nc(-c2ccccc2)c(/N=N/c2ccccc2[N+](=O)[O-])c1-c1ccccc1", "TEST TARGET": "RPMI-8226", "CLASS": "inactive"}
{"MOLECULE": "CCCCCCCCC1C(C)c2c([nH]c3ccccc23)C2C(=O)N(c3ccccc3)C(=O)C21 (configuration not stated)", "TEST TARGET": "RPMI-8226", "CLASS": "inactive"}
{"MOLECULE": "C/C(=N\\NS(=O)(=O)c1c(C)cc(C)cc1C)c1ccc[n+]([O-])n1", "TEST TARGET": "RPMI-8226", "CLASS": "inactive"}
{"MOLECULE": "C[N+](C)(C)CC(CC(=O)[O-])C1CC1 (configuration not stated)", "TEST TARGET": "RPMI-8226", "CLASS": "inactive"}
{"MOLECULE": "COc1ccc2c(c1)CCC1=C/C(=N\\NC(N)=O)CCC12C (configuration not stated)", "TEST TARGET": "RPMI-8226", "CLASS": "inactive"}
{"MOLECULE": "COC1=CC(=O)c2c(CCNC(=O)OCc3ccccc3)n[nH]c2C1=O", "TEST TARGET": "RPMI-8226", "CLASS": "inactive"}
{"MOLECULE": "COc1cc(/C=N/N=C2NCCN2)ccc1O", "TEST TARGET": "RPMI-8226", "CLASS": "inactive"}
{"MOLECULE": "COc1ccc(C2=C(N)c3ccccc3C2=O)cc1", "TEST TARGET": "RPMI-8226", "CLASS": "inactive"}
{"MOLECULE": "CCCCCCCCCCCCCCCCCCCCCC(=O)Nc1ccn(C2OC(CO)C(O)C2O)c(=O)n1 (configuration not stated)", "TEST TARGET": "RPMI-8226", "CLASS": "inactive"}
{"MOLECULE": "O=c1c2cc(I)ccc2nc(Sc2ccc([N+](=O)[O-])cc2[N+](=O)[O-])n1Cc1ccccc1", "TEST TARGET": "RPMI-8226", "CLASS": "inactive"}
